Data provenance: paper PMC7615676

assay: Property Forecast Index; assay type: physicochemical; settings: number of aromatic rings + ChromLogD at pH 7.4
experimental_endpoint: PFI

INSERT INTO assay_data (compound, experimental_endpoint, assay_value) VALUES
  ('COc1ccccc1-c1c(C)[nH]c2nc(N)nc(C)c12', 'PFI', 6.2),
  ('COc1cc(Cl)ccc1-c1c(C)[nH]c2nc(N)nc(C)c12', 'PFI', 7.2),
  ('CC[C@@H]([C@H](C)O)n1ncn(-c2ccc(N3CCN(c4ccc(OC[C@@H]5CO[C@@](Cn6cncn6)(c6ccc(F)cc6F)C5)cc4)CC3)cc2)c1=O [Posaconazole, reference compound]', 'PFI', 11.1),
  ('O=C(Cn1ccnc1[N+](=O)[O-])NCc1ccccc1 [Benznidazole, reference compound]', 'PFI', 4.3),
  ('COc1ccc(-c2c(C)[nH]c3nc(N)nc(C)c23)c(OC)c1', 'PFI', 6.1),
  ('COc1cc(F)ccc1-c1c(C)[nH]c2nc(N)nc(C)c12', 'PFI', 6.4);

---

test system: T. cruzi culture derived trypomastigotes, strain Silvio X10/7 A1; assay: trypomastigote assay; type: cell-based; details: Trypanosoma cruzi, read-out: Trypomastigotes pEC50 (converted)
# log10 EC50 annotations
experimental_endpoint: log10 EC50 (log10 of the value in nM)

INSERT INTO measurements (compound, assay_value) VALUES
  ('COc1cc(Cl)ccc1-c1c(C)[nH]c2nc(N)nc(C)c12', 1.10),
  ('COc1cc(F)ccc1-c1c(C)[nH]c2nc(N)nc(C)c12', 1.50),
  ('COc1ccccc1-c1c(C)[nH]c2nc(N)nc(C)c12', 2.40),
  ('COc1ccc(-c2c(C)[nH]c3nc(N)nc(C)c23)c(OC)c1', 1.70),
  ('O=C(Cn1ccnc1[N+](=O)[O-])NCc1ccccc1 [Benznidazole, reference compound]', 3.60);

---

test system: HepG2 cells; assay: general cytotoxicity assay in HepG2 cells; assay type: cell-based; details: Homo sapiens, HepG2, 48 h, CellTiter-Glo, read-out: HepG2 pEC50 (converted)
Parameter EC50: see the listing below.
experimental_endpoint: EC50 (µM)

INSERT INTO measurements (compound, experimental_endpoint, value_unit, measurement_qualifier, assay_value) VALUES
  ('CC[C@@H]([C@H](C)O)n1ncn(-c2ccc(N3CCN(c4ccc(OC[C@@H]5CO[C@@](Cn6cncn6)(c6ccc(F)cc6F)C5)cc4)CC3)cc2)c1=O [Posaconazole, reference compound]', 'EC50', 'µM', '>', 100),
  ('COc1cc(Cl)ccc1-c1c(C)[nH]c2nc(N)nc(C)c12', 'EC50', 'µM', '=', 79.4),
  ('COc1cc(F)ccc1-c1c(C)[nH]c2nc(N)nc(C)c12', 'EC50', 'µM', '=', 63.1),
  ('O=C(Cn1ccnc1[N+](=O)[O-])NCc1ccccc1 [Benznidazole, reference compound]', 'EC50', 'µM', '>', 100),
  ('COc1ccc(-c2c(C)[nH]c3nc(N)nc(C)c23)c(OC)c1', 'EC50', 'µM', '=', 79.4);

---

assay: kinetic aqueous solubility (CLND); format: physicochemical; conditions: phosphate buffered saline, aqueous buffer, kinetic from dmso stock, pH 7.4
experimental_endpoint: solubility at 1 h (µg/mL)

INSERT INTO results (molecule, assay_value) VALUES
  ('O=C(Cn1ccnc1[N+](=O)[O-])NCc1ccccc1 [Benznidazole, reference compound]', 77),
  ('COc1ccc(-c2c(C)[nH]c3nc(N)nc(C)c23)c(OC)c1', 137),
  ('CC[C@@H]([C@H](C)O)n1ncn(-c2ccc(N3CCN(c4ccc(OC[C@@H]5CO[C@@](Cn6cncn6)(c6ccc(F)cc6F)C5)cc4)CC3)cc2)c1=O [Posaconazole, reference compound]', 14),
  ('COc1cc(Cl)ccc1-c1c(C)[nH]c2nc(N)nc(C)c12', 103),
  ('COc1cc(F)ccc1-c1c(C)[nH]c2nc(N)nc(C)c12', 117),
  ('COc1ccccc1-c1c(C)[nH]c2nc(N)nc(C)c12', 110);

---

test: intrinsic clearance in human liver microsomes; assay type: in vitro ADME; conditions: read-out: T 1/2 human
experimental_endpoint: half-life at 0.5 μM (h)

INSERT INTO assay_data (substance_smiles, measurement_qualifier, assay_value) VALUES
  ('COc1cc(F)ccc1-c1c(C)[nH]c2nc(N)nc(C)c12', '=', 1.6),
  ('COc1cc(Cl)ccc1-c1c(C)[nH]c2nc(N)nc(C)c12', '>', 2.32),
  ('COc1ccc(-c2c(C)[nH]c3nc(N)nc(C)c23)c(OC)c1', '=', 1.1);

---

assay: bioanalysis of blood samples from in vivo efficacy studies; set-up: species or system BALB/c mice; conditions: BALB/c, mouse, whole blood, po, 50 mg/kg, compound 3 50mg/kg bid, 10-day study; read-out: Cmax last day
experimental_endpoint: Cmax

INSERT INTO measurements (substance_smiles, assay_value) VALUES
  ('COc1cc(Cl)ccc1-c1c(C)[nH]c2nc(N)nc(C)c12', '1250 ng/mL');

---

experiment: bioanalysis of blood samples from in vivo efficacy studies; set-up: species or system BALB/c mice; conditions: BALB/c, mouse, whole blood, po, 50 mg/kg, compound 2 50mg/kg bid, 21-day study; read-out: Cmax Day 21
experimental_endpoint: Cmax (ng/mL)

INSERT INTO measurements (substance_smiles, assay_value) VALUES
  ('COc1cc(F)ccc1-c1c(C)[nH]c2nc(N)nc(C)c12', 1470);

---

molecular target: Human complex III (bc1), mitochondria from THP-1 (Homo sapiens, UniProt P00156); construct: Preparation of mitochondria from a human cell line (THP-1); endogenous in cells; experiment: human complex III inhibition assay
pEC50: −log10 of the molar value.
experimental_endpoint: pEC50

INSERT INTO assay_data (substance_smiles, assay_value) VALUES
  ('COc1ccc(-c2c(C)[nH]c3nc(N)nc(C)c23)c(OC)c1', '< 3.70');

---

experiment: intrinsic clearance in mouse liver microsomes; type: in vitro ADME; details: male, CD-1, read-out: T 1/2 mouse
experimental_endpoint: half-life at 0.5 μM (min)

INSERT INTO measurements (substance_smiles, assay_value) VALUES
  ('COc1ccc(-c2c(C)[nH]c3nc(N)nc(C)c23)c(OC)c1', 33),
  ('COc1cc(F)ccc1-c1c(C)[nH]c2nc(N)nc(C)c12', 52),
  ('COc1cc(Cl)ccc1-c1c(C)[nH]c2nc(N)nc(C)c12', 48);

---

experiment: bioanalysis of blood samples from in vivo efficacy studies; set-up: species or system BALB/c mice; conditions: BALB/c, mouse, whole blood, po, 50 mg/kg, compound 3 50mg/kg bid, 20-day study; read-out: Cmax Day 1
experimental_endpoint: Cmax (ng/mL)

INSERT INTO results (substance_smiles, experimental_endpoint, value_unit, assay_value) VALUES
  ('COc1cc(Cl)ccc1-c1c(C)[nH]c2nc(N)nc(C)c12', 'Cmax', 'ng/mL', 480);

---

tested on: T. cruzi epimastigotes bearing mutations in cytochrome b; experiment: epimastigote drug sensitivity assay, cytochrome b mutant / resistant lines; assay type: cell-based, Trypanosoma cruzi; details: Trypanosoma cruzi, read-out: EC50 G36C/L197I cytb line
experimental_endpoint: EC50

INSERT INTO results (substance_smiles, assay_value) VALUES
  ('COc1cc(Cl)ccc1-c1c(C)[nH]c2nc(N)nc(C)c12', '258 nM'),
  ('COc1cc(F)ccc1-c1c(C)n(C)c2nc(N)nc(C)c12', '37 nM');
